System Name: T1, CD70 on cells (CHO-CD70, JVM-3, U266, Raji, THP-1, T cells) (human, UniProt P32970 1-193)
T1 construct: whole, on cells; also called cell-surface CD70
T1 sequence (looked up): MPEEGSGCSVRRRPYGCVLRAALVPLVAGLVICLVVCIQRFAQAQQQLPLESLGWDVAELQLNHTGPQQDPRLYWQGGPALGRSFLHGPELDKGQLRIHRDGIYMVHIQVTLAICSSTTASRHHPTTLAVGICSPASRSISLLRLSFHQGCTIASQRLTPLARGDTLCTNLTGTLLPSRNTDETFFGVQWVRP
Assay Summary: 1.25 µg/mL scFv on JVM-3 cells

>  <Binder>
58-TC7-III-G11 (scFv, His-tagged) scFv: EVQLVQSGGGVVQPGRSLRLSCAASGFTFSSYAMHWVRQAPGKGLEWVAVISYDGSNKYYADSVKGRFTISRDNSKNTLYLQMNSLRAEDTAVYYCATNSGYDSDYYYGMDVWGQGTTVTVSSGGSGGSGGSGGSQSVLTQPPSMSGAPGQRVTISCTGSSSNIGAGYDVHWYQHLPGTGPKLLIHGNTNRPSGVPDRFSGSKSGTSASLAITGLQAEDEADYYCQSYDNSLGGYVVFGGGTKVTVL

>  <cell binding>
14700

$$$$
